method.notes: PET hydrolysis product formed (TPA+MHET+BHET, UV-Vis) per mg enzyme (mmol/mg enzyme); higher = more PET depolymerisation activity; extreme values may be limits of the assay
study.conditions: PET substrate: aFilm; 60 °C; pH 6.5; 2 h
value.kind: PET hydrolysis product formed

>  <seq>
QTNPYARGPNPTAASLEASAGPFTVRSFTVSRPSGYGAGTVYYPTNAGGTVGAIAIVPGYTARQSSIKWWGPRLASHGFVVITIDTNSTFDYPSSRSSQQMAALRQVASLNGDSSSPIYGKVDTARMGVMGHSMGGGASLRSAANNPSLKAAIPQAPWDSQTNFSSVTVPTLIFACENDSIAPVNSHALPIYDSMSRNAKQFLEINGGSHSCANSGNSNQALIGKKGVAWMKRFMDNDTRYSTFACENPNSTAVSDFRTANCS [DuraPETase]

>  <data.value>
0

$$$$
>  <seq>
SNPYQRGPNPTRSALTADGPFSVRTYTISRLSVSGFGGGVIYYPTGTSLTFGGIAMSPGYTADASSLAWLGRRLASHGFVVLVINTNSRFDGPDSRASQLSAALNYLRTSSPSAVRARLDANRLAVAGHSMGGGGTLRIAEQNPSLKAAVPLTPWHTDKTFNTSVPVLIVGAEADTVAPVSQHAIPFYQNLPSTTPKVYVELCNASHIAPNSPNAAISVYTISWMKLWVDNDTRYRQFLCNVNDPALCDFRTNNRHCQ [LCC-ICCG RIP]

>  <data.value>
0.0276

$$$$
